- ASSAY METHOD TEXT: soluble on expression in E. coli; label from the status in PepcDB or PDB records

CHAIN	soluble on expression in E. coli
AIASETISRVRQLTEKGAKMEGWDDCWKAGLTPWDRGSSLPVLCELCKEDALPKGYALVPGCGRGYDVLTLASESRVAIGLDCSEEAKKQAEQVRKFSVVDNCQLKEIEAEGF	soluble
MSLEGRRICVDSCPITCITFCAAHTALGPHHGRSGCAVVIRSMDEKLKRVAHAVSDMGLMSKILGESGSSRNTEDYVELNANEFEMTGTELERQVRIARISDKQDVIDIKDAVYDGDVVVADITRHSTQDRTMEHISDELKQVANEVGGDIVQKDDDQLIITPAGVGIARERLGREGHHHHHH	soluble
MGSDKIHHHHHHMIRFKDIHIPKPCSVEYDTLPGDDIKRFCGSCEKYVYDFRGKDQAYLNAVFSATGKACGIYYADQIQASPALKTNRPFYSSFVSKLIATSLFLRIFLTSNNTKAHRTEPQTIVQQTTDSTELKTIHTGNDKAMYRVTVDIYKNDTLEESFLLENQNSIYLPDSIKPLDKIKVVVSTVRYNIPTSKNRTRSGKYMSNKTYYTTEQKKTYHFNFAGCNKIIIKIRHTKFIHIFLKKRTAIMGLVCPSDFW	not soluble
MSLKLYYMPAACSLSPHIVANELELDIEFVRVNFKDHKTEGGQDYYDINPNGYIPALDVGNGAMLFEGPAIVQYMADLKPQSGLAPANGTFERYKLQEMLSFLSTEIHKGFIPLLYAKQAGAYLETATPKLEKRYAWIDNLLASQRFLMGENFTVADAYLFALTSWGQASWLKSYYGADIHFDDLLNLRGWYERVKERDAVKQSILEEGLSLSEGHHHHHH	soluble
MFGRQVGRVVFRTASVVVQRRSVSASVPQMVKLVAPSVNFIQTRGSKIEVFGPFDPPKQLTFKQVEDRVLKAVRSWDRFPADKESLLKLDADLSKDFGFDSLDQVEIVMALEDEFGFEIPLQDSDKFKTIRDAFKYICEREDVYE	not soluble
MGSDKIHHHHHHMLIISDAHANIHPLKYVIQREKFDKIVFCGDAVDYGPNPGETLDLLKENADVMVSGNHDYAAAYSVDCRCGEENHELSVFTRENITLKKLGKNDISFLRSLPNRMDMEIDGMKFQVMHGSPRDELYGYMYPWSVQDHLRSMLGSPLDPANYVVGHTHYQFLIRYAGNLVINPGSIGQPRDNPMPSYAVYDSSRNSVEFPRFDYDRSKLKEDIRSIISDQEILSGLYRLFSL	not soluble
MKLKELVKQFIPMNYWNTRRKASIIRQQGKVADFWAPILKAYYNGEIERYSLKPKKKLGTQKVIWQYWGQGIDKDELPEIIQICFDSVDRNKNDYQVIRLTDITISEYIDLPDFVWRKREYVQFTRTFFSDLLRVALLSTYGGVWLDATILLTGSIPAVYEKTDFFMYQRSDEEKNKKYWENVYAYYFGWEPNFKVRMLSSILFAQKESEIISTLTDLLLYFWKTQDSLPDYFCFQILFNELVANYRPAENCPIVNDCIPHIIQTKINGTYDDVSFEEALELSNIHKMTYFDAAAMIRLKMVLRLARNALEHHHHHH	soluble
